- TARGET_OR_SYSTEM: UniProtKB Q4QY30
- Sequence (Q4QY30 1-834): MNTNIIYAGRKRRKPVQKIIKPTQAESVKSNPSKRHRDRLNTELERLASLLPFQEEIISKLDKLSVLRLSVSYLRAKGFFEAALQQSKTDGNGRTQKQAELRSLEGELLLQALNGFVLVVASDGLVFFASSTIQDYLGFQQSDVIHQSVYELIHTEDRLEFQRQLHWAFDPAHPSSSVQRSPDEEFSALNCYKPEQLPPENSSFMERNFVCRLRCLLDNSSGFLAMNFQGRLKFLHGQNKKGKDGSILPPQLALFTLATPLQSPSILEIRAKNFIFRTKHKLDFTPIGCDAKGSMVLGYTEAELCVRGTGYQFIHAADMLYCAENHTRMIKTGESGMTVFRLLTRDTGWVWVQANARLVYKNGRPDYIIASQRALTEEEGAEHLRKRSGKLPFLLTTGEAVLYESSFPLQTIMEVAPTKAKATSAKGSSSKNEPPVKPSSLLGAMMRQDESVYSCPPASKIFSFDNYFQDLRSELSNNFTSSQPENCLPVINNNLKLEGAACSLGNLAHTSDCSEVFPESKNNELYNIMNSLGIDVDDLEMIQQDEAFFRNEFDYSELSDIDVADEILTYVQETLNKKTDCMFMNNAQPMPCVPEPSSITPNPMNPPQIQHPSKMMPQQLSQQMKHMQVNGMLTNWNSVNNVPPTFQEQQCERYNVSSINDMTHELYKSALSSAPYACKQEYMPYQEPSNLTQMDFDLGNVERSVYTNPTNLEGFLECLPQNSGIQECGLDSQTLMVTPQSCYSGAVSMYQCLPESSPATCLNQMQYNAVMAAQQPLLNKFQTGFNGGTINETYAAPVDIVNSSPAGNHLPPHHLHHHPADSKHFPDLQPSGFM
- EXPERIMENT_DESCRIPTION: Transactivation
MEASUREMENT_TYPE: pEC50
pEC50 is defined as minus the log10 of a concentration measured in mol/L.

Requested field: pEC50. Item: O=Cc1c2[nH]c3ccccc3c2cc2[nH]c3ccccc3c12 [FICZ, 6-formylindolo[3,2-b]carbazole]
9.85
